Measured values drawn from the supplement of paper PMC10567573 for this set.

B1: TLE6 (parent)
chain: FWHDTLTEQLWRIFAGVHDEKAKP

Variants of: B1
protocolDetails: protein stability index of a GFP-peptide fusion (GPS, HEK-293T) (PSI 1-6); higher = more stable;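 also: lentivirally expressed fusions sorted by FACS into six bins by GFP to DsRed ratio, PSI derived from sequencing read proportions per bin multiplied by bin number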
testSettings: c terminus: a fixed tail appended
Use 2 as the dividing line for protein stability index, with the line itself on the YES side and lower values as NO.

>>> df
   variantdescription  discretelabel
0                 D4N             NO
1                K21E            YES
2                 D4P            YES
3                A22D             NO
4                F14K            YES
5                A22F            YES
6                 F1N            YES
7                F14T            YES
8                 T7S            YES
